- Experimental system: recombinant human CD38 (human, UniProt P28907 43-300, limits assumed)
- Experiment description: SPR (Biacore 8K), antibody captured, antigen injected;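 further: antibodies held on a CM5 chip through anti-human IgG Fc, antigen in 3-fold serial dilutions, 1 min association then 10 min dissociation at 25 °C, 1:1 Langmuir global fit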
Assay metric: koff (s⁻¹)
Answers are plain numbers, in s⁻¹.

Q) # lookup: koff of 23D1 (antibody, human IgG1, kappa, V domains shown, Rabbit-human chimeric anti-CD38: rabbit VH and VL on human IgG1 and kappa constant regions) VH: QELVESGGGLFQPGGSLALTCKASGFSLSNIYVMCWVRQAPGKGLEWIACIGTGSGDTDYATWAKGRFTISKTSSTTVTLQMTSLTAADTATYFCARDPGAGTWNLWGPGTLVTVSS VL: DIVMTQTPSSVEAAVGGTVTIKCQASQTIGSRLAWYQQKPGQPPKLLIYSASTLASGVSSRFKGSGSGTQFTLTISDLDSADAATYYCQSYYYTSTSYPNAFGGGTEVVVKR
A) 0.000125

src = patent US20220002432A1
